System: HS 578T
studyConditions: 10 μM
parameter: GI %

Param item: CCCn1cc(C=NN=C2C(=O)Nc3ccc(C)cc32)c2ccccc21 ; param system: HS 578T; output GI %: 26%

* * *

Test system: RXF 393
studyConditions: RXF 393, 10 μM
Entries and their GI % values follow.

>  <compound>
C=CCn1cc(C=NN=C2C(=O)Nc3ccccc32)c2ccccc21 [Compound 10a]

>  <GI %>
11%

$$$$

Let's switch to this compound now.
Param item: CCCn1cc(C=NN=C2C(=O)Nc3ccc(C)cc32)c2ccccc21 ; param system: RXF 393; output GI %: 89%

* * *

Tested on: SNB-75
studyConditions: SNB-75, 10 μM
parameter: GI % (%)
Supply the numeric figure in %, leaving out any unit text.

Previously resolved entries follow.
>  <compound>
CC(C)n1cc(C=NN=C2C(=O)Nc3ccccc32)c2ccccc21

>  <unitOfMeasurement>
%

>  <GI %>
33

$$$$
>  <compound>
CCCn1cc(C=NN=C2C(=O)Nc3ccc(C)cc32)c2ccccc21

>  <unitOfMeasurement>
%

>  <GI %>
15

$$$$

Entry C=CCn1cc(C=NN=C2C(=O)Nc3ccccc32)c2ccccc21 [Compound 10a] ; GI % = 18

* * *

System: SK-MEL-5
studyConditions: SK-MEL-5, 10 μM
parameter: GI %

Param item: CCCn1cc(C=NN=C2C(=O)Nc3ccc(C)cc32)c2ccccc21 [Compound 8a] ; param system: SK-MEL-5; output GI %: 51%

* * *

System: OVCAR-4
studyConditions: OVCAR-4, 10 μM
Entries and their GI % values follow.
Supply the numeric figure in %, leaving out any unit text.

>  <compound>
C=CCn1cc(C=NN=C2C(=O)Nc3c(F)cccc32)c2ccccc21 [Compound 10c]

>  <value>
22

$$$$
>  <compound>
C=CCn1cc(C=NN=C2C(=O)Nc3ccccc32)c2ccccc21 [Compound 10a]

>  <value>
27

$$$$

Let's switch to this compound now.
Entry CCCn1cc(C=NN=C2C(=O)Nc3ccc(C)cc32)c2ccccc21 ; GI % = 58

* * *

Entries and their GI % values follow.
Test system: OVCAR-8
studyConditions: OVCAR-8, 10 μM
Supply the numeric figure in %, leaving out any unit text.

Previously resolved entries follow.
>  <compound>
C=CCn1cc(C=NN=C2C(=O)Nc3ccccc32)c2ccccc21 [Compound 10a]

>  <testedSystem>
OVCAR-8

>  <unitOfMeasurement>
%

>  <value>
15

$$$$
>  <compound>
CCCn1cc(C=NN=C2C(=O)Nc3ccc([N+](=O)[O-])cc32)c2ccccc21

>  <testedSystem>
OVCAR-8

>  <unitOfMeasurement>
%

>  <value>
29

$$$$
>  <compound>
CCCn1cc(/C=N/N=C2\C(=O)Nc3ccc(OC(F)(F)F)cc32)c2ccccc21

>  <testedSystem>
OVCAR-8

>  <unitOfMeasurement>
%

>  <value>
15

$$$$

Param item: C=CCn1cc(C=NN=C2C(=O)Nc3c(F)cccc32)c2ccccc21 [Compound 10c] ; param system: OVCAR-8; output GI %: 11

Param item: CCCn1cc(C=NN=C2C(=O)Nc3ccc(C)cc32)c2ccccc21 ; param system: OVCAR-8; output GI %: 53

* * *

Test system: HCT-116
experimentalProtocol: SRB anti-proliferative assay
Format: cell-based
studyConditions: Homo sapiens; HCT-116, SRB, mean ± SE of 3
Source text: All the newly prepared target conjugates (7, 8a–c, 9 and 10a–e) were investigated for the prospective growth inhibitory actions against three different cancer cell lines viz.; A-549, MDA-MB-231, and HCT-116, using the sulforhodamine B colorimetric (SRB) assay. Staurosporine, a clinically used antitumor drug, was co-assayed as a reference agent for the experiment. […]
Entries and their log10 of IC50 values follow.
Scale: log10; quantity: IC50; unit before log: µM

>  <compound>
C=CCn1cc(C=NN=C2C(=O)Nc3c(F)cccc32)c2ccccc21 [Compound 10c]

>  <log10 of IC50>
0.86

$$$$
>  <compound>
C=CCn1cc(C=NN=C2C(=O)Nc3ccccc32)c2ccccc21 [Compound 10a]

>  <log10 of IC50>
0.89

$$$$
>  <compound>
C=CCn1cc(C=NN=C2C(=O)Nc3ccc(F)cc32)c2ccccc21 [Compound 10b]

>  <log10 of IC50>
1.56

$$$$
>  <compound>
CCCn1cc(C=NN=C2C(=O)Nc3ccc([N+](=O)[O-])cc32)c2ccccc21

>  <log10 of IC50>
0.81

$$$$

Entry CC(C)n1cc(C=NN=C2C(=O)Nc3ccccc32)c2ccccc21 ; log10 of IC50 = 1.45

Entry CCn1cc(C=NN=C2C(=O)Nc3ccc(Cl)cc32)c2ccccc21 ; log10 of IC50 = 1.29

Entry C=CCn1cc(C=NN=C2C(=O)Nc3ccc(Cl)cc32)c2ccccc21 [Compound 10d] ; log10 of IC50 = 1.45

Entry COc1cccc2c1C(=O)c1c(O)c3c(c(O)c1C2=O)C[C@@](O)(C(=O)CO)C[C@@H]3O[C@H]1C[C@H](N)[C@H](O)[C@H](C)O1 [Dox., doxorubicin, reference compound] ; log10 of IC50 = 0.57

Entry CCCn1cc(C=NN=C2C(=O)Nc3ccc(C)cc32)c2ccccc21 ; log10 of IC50 = 0.41

Entry CCCn1cc(/C=N/N=C2\C(=O)Nc3ccc(OC(F)(F)F)cc32)c2ccccc21 ; log10 of IC50 = 1.28

Entry C=CCn1cc(/C=N/N=C2\C(=O)Nc3ccc(OC(F)(F)F)cc32)c2ccccc21 [Compound 10e] ; log10 of IC50 = 1.57
